biological target: Transient receptor potential cation channel subfamily V member 1 (Rattus norvegicus, UniProt O35433); assay: Displacement of [3H]RTX from rat TRPV1 expressed in CHO cells; format: cell-based; settings: read-out: Ki
Sequence (O35433 whole entry): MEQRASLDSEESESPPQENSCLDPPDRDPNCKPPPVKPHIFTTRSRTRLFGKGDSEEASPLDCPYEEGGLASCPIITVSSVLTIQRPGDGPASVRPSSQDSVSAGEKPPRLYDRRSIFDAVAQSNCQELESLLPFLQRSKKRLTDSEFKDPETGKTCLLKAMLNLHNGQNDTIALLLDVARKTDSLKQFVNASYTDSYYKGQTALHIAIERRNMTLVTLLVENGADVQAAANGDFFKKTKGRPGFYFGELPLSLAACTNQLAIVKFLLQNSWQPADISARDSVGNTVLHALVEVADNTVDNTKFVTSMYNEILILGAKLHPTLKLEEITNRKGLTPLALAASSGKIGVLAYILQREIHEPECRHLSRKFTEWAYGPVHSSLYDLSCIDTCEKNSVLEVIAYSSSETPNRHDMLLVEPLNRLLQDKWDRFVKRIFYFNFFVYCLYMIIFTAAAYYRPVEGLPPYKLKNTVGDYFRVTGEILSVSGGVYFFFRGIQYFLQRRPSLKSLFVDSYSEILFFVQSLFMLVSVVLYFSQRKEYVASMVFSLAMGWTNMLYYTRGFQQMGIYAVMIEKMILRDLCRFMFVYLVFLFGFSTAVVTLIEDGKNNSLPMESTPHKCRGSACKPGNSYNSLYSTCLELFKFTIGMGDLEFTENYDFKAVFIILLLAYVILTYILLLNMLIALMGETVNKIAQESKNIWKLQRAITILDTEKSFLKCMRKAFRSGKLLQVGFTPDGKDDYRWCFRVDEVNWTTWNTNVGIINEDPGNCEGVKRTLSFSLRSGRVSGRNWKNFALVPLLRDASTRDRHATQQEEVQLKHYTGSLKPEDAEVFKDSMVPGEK
pKi: −log10 of the molar value.
measure: pKi

- compound: "Cc1ccc(CNC(=O)C(C)c2ccc(NS(C)(=O)=O)c(F)c2)cc1 (centres undefined)"
  experimental-value: 5.51
- compound: "CC(C(=O)NCCC(c1ccc(F)cc1)c1ccc(F)cc1)c1ccc(NS(C)(=O)=O)c(F)c1 (centres undefined)"
  experimental-value: 7.10

A: CC(NC(=O)Cc1ccc(C(C)(C)C)cc1)c1ccc(NS(C)(=O)=O)c(F)c1 (centres undefined)
B: CC(C(=O)NCc1ccc(C2CC2)cc1)c1ccc(NS(C)(=O)=O)c(F)c1 (centres undefined)
Would you kindly point out which of A and B has the smaller pKi figure? API: response body contains the label of the selected item.
A
